Hello, the source for this data is patent US12421243B2, in case you need it.

TARGET DESC: isolated porcine cardiac ventricular myocardium (cardiac) (Sus scrofa, UniProt P79293)
Construct: isolated porcine cardiac ventricular myocardium (cardiac); from tissue; host or cells: porcine cardiac ventricle
Sequence (P79293 whole entry): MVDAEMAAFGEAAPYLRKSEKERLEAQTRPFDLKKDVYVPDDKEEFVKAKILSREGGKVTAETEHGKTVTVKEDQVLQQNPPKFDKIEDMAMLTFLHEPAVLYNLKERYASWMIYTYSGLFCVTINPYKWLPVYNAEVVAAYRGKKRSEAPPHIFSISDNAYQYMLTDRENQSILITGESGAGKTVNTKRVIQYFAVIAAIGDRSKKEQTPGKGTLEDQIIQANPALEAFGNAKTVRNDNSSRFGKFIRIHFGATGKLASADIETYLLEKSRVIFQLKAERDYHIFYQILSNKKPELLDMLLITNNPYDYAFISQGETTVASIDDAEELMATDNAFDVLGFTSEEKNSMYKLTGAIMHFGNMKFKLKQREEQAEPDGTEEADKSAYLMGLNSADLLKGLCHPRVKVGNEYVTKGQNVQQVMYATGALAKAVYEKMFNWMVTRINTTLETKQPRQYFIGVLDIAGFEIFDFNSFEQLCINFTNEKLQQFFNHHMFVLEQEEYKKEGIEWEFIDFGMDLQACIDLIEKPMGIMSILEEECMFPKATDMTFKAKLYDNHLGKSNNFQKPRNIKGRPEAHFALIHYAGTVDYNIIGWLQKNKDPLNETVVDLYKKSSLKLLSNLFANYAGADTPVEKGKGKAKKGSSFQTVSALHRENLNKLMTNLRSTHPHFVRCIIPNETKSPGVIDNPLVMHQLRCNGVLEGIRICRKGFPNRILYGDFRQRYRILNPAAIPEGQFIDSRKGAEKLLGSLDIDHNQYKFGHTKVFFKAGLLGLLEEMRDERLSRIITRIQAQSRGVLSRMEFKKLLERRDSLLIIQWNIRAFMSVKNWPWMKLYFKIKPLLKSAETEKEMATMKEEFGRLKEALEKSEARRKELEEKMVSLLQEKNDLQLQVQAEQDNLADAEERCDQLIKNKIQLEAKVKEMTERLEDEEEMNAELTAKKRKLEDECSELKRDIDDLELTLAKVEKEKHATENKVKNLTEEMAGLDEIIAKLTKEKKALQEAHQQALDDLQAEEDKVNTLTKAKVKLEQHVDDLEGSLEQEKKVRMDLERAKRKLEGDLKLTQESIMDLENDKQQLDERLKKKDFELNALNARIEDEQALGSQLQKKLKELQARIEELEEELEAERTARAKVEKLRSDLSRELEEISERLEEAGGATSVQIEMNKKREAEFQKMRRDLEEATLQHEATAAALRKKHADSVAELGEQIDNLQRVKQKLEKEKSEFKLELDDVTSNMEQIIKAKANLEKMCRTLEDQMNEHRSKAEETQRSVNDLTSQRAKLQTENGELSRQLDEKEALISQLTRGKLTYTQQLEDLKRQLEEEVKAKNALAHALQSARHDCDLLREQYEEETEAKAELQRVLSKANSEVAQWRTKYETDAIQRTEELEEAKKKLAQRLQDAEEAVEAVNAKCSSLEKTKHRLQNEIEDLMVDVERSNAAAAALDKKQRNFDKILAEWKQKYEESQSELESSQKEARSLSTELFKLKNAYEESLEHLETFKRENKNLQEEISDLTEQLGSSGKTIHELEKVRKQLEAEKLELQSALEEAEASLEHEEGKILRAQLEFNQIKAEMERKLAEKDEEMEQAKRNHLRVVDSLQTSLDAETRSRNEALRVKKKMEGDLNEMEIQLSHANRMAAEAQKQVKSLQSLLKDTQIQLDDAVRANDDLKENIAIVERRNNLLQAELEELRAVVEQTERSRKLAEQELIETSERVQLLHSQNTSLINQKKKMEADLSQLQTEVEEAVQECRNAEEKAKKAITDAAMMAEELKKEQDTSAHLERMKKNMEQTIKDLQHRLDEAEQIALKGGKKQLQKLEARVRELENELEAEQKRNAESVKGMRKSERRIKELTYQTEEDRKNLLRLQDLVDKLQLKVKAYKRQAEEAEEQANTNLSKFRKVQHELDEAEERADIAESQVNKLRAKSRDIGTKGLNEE
TEST DETAILS: actomyosin steady state ATPase measurement, cardiac myosin
Type: biochemical
CONDITION NOTES: concentration required for semi-maximal inhibition of ATPase
READOUT NAME: IC50 (µM)
Write the answer as a number in µM, unit excluded.

-- ask Under isolated porcine cardiac ventricular myocardium (cardiac) (Sus scrofa, UniProt P79293), report IC50 for Cc1ccc(N2CCC3(O)C(=O)c4cc(C)sc4N=C23)cc1 (centres unmarked) [Compound 235]
-- reply 0.01

-- ask Enter IC50 (test system isolated porcine cardiac ventricular myocardium (cardiac) (Sus scrofa, UniProt P79293)) for O=C1c2ccsc2N=C2N(c3ccc(OC(F)(F)F)cc3)CC[C@@]12O [Compound 212]
-- reply 5.9

-- ask With isolated porcine cardiac ventricular myocardium (cardiac) (Sus scrofa, UniProt P79293) as the test system, provide measured IC50 for this compound: O=C1c2ccsc2N=C2NCC[C@@]12O [Compound 207]
-- reply 3.7

-- ask Consider the compound O=C1c2ccncc2N=C2N(c3ccc(OC(F)(F)F)cc3)CCC12O (centres unmarked) [Compound 238] tested on isolated porcine cardiac ventricular myocardium (cardiac) (Sus scrofa, UniProt P79293); state its IC50.
-- reply 59
